Record form. Attribute: Neutralization titer SK50. Fill in for each entry.
target: HA of virus A/Johannesburg/33/94 (H3N2) (influenza A virus (H3N2)); experiment: cell-based or functional assay
Express the result in µg/mL but write the number alone.

Which Neutralization titer SK50 is listed for CR8055 (antibody, V domains shown) VH: EIVLTQSPDFQSVAPKEKVTITCRASRSIGSDLHWFQQRPDQSPKLLIKFASQSMSGVPSRFSGSGSGRDFTLTISSLEAEDAATYYCHQSSSLPLT VL: EVQLVESGGGLVQPGGSLRLSCAASGFTDSVIFMSWVRQAPGKGLECVSIIYIDDSTYYADSVKGRFTISRHNSMGTVFLEMNSLRPDDTAVYYCATESGDFGDQTGPYHYYAMDV ? 3.38

Which Neutralization titer SK50 is listed for CR8039 (antibody, V domains shown) VH: QLQLQESGPGLVKPSETLSLTCTVSGGSIGSYYWSWIRQPPGKGLEWIGYIYYRGGTSYNPSLKSRVTISVDTSKSQFTLKLNSVTAADTAVYYCARKDWGSAAGSVWYFDL VL: QSALTQPPSASGSPGQSVTISCTGTSSDVGGYNYVSWYQQHPGKAPKLMIREVSKRPSGVPDRFSGSKSGNTASLTVSGLQAEDEAEYYCSSYAGSNNLI ? 1.33

Which Neutralization titer SK50 is listed for CR8050 (antibody, V domains shown) VH: EIVMTQSPGTLSLSPGERATLSCRASQSVSRNYLAWYQQKPGLAPRLLISGASSRATGVPDRFSGRGSDTDFTLTISRLEPEDFAVYYCQHYGSVLVA VL: QVQLQESGPGLVKPSETLSLTCTVSGGSVSSGTYYWSWIRQPPGKGLEWIGDISYSGSTNYNPSLKSRVTISRDTSKNLVSLKLTSVTAADTAVHYCARAMAAYNYDRGGYNDYYYMDV ? 1.49

Which Neutralization titer SK50 is listed for CR8001 (antibody, V domains shown) VH: EVQLVESGGGLIQPGGSLRLSCAASGFTVSSNYVSWVRQAPGKGLEWLSLIYTGGTTYYADSVKGRFTISRDNSKNTVFLQMNSLRAEDAAMYYCARVSALRFLQWPNYAMDV VL: QSALTQPASVSGSPGRSITISCSGTRSDVGGHNYVSWYQQHPGKAPKLMIYEVSHRPSGVSNRFSGSKSGSTASLTISGLQSEDEADYYCSSYTGEGPLGV ? 6.51
